Assign inhibition at 0.3 µM to each entry below.
# ASSAYED_SYSTEM: Type II 5α-Reductase from Human Prostate (Homo sapiens)
# Construct: The same procedure as above was used for preparations using tissue from prostate surgery; from tissue; host or cells: human prostate tissue from surgery, homogenate, 100,000×g pellet
# Sequence (P31213 1-254): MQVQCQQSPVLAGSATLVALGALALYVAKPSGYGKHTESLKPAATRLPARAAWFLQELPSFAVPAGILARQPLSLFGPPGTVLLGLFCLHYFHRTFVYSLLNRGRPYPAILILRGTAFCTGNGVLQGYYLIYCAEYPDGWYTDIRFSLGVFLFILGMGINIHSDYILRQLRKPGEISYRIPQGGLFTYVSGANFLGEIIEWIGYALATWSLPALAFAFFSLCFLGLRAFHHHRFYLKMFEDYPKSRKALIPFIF
# PROTOCOL_TEXT: Human Type II 5α-reductase assay (conversion of [3H]-testosterone to 5α-reduced metabolites)
# Type: biochemical
# SETUP_CONDITIONS: pH 5.5, 0.3 μM; sodium acetate pH 5.5, 25°, 30 min; compared to control reaction mixtures; read-out: percent inhibition of Type II AR

Past entries and their recorded results:
MOLECULE | MEASURED_ATTRIBUTE | RESULT
CN1C(=O)CC[C@]2(C)c3ccc(-c4cccc(NC(c5ccccc5)c5ccccc5)c4)cc3CC[C@@H]12 [Example 272] | inhibition at 0.3 µM | 11%
CN1C(=O)CC[C@]2(C)c3ccc(-c4ccc5c(c4)Cc4ccccc4-5)cc3CC[C@@H]12 [Example 131] | inhibition at 0.3 µM | 44%
CN1C(=O)CC[C@]2(C)c3ccc(Sc4nc5ccc(Cl)cc5s4)cc3CC[C@@H]12 [Example 158] | inhibition at 0.3 µM | 63%
Cc1ccc(C(F)(F)F)c2sc(Sc3ccc4c(c3)CC[C@H]3N(C)C(=O)CC[C@]43C)nc12 [Example 190] | inhibition at 0.3 µM | 26%

Hi, could you look up inhibition at 0.3 µM for each item in my list?
1. CN1C(=O)CC[C@]2(C)c3ccc(-c4ccc(F)cc4F)cc3CC[C@@H]12 [Example 231]
2. CN1C(=O)CC[C@]2(C)c3ccc(Sc4nc5c(F)cccc5s4)cc3CC[C@@H]12 [Example 162]
3. CN1C(=O)CC[C@]2(C)c3ccc(-c4ccc(COc5ccccc5)s4)cc3CC[C@@H]12 [Example 126]
4. CN1C(=O)CC[C@]2(C)c3ccc(SCc4cc5ccccc5cn4)cc3CC[C@@H]12 [Example 191]

A.
["21%", "87%", "43%", "19%"]
